Where do the numbers come from? From ChEMBL document CHEMBL5113398.

Experiment: n-Octanol/PBS partition coefficient, logD of the compound at pH 7.4
Assay type: physicochemical
Outcome Measure: logD

Mol Smiles: COc1cc2cc(Oc3ccc(NC(=O)Nc4ccc(F)c(C(F)(F)F)c4)cc3)c(C)nc2cc1OCCN1CCOCC1
logD: 2.54
--
Mol Smiles: CNC(=O)c1cc(Oc2ccc(NC(=O)Nc3ccc(Cl)c(C(F)(F)F)c3)cc2)ccn1
logD: 3.85
--
Mol Smiles: COc1cc2cc(Oc3ccc(NC(=O)Nc4cc(C(F)(F)F)cc(C(F)(F)F)c4)cc3)c(C)nc2cc1OC
logD: 3.1
--
Mol Smiles: COc1cc2cc(Oc3ccc(NC(=O)Nc4cc(C(F)(F)F)cc(C(F)(F)F)c4)cc3)c(C)nc2cc1OCCN1CCOCC1
logD: 2.91

a: CCC(C)(C)C(=O)O[C@H]1C[C@@H](C)C=C2C=C[C@H](C)[C@H](CC[C@@H]3C[C@@H](O)CC(=O)O3)[C@H]21
b: CO[C@H]1/C=C/O[C@@]2(C)Oc3c(C)c(O)c4c(O)c(c(/C=N/N5CCN(C)CC5)c(O)c4c3C2=O)NC(=O)/C(C)=C\C=C\[C@H](C)[C@H](O)[C@@H](C)[C@@H](O)[C@@H](C)[C@H](OC(C)=O)[C@@H]1C
c: COc1cc2cc(Oc3ccc(NC(=O)Nc4ccc(Cl)c(C(F)(F)F)c4)cc3)c(C)nc2cc1OCCN1CCOCC1
stdin: Hello, I need these entries ordered by logD, highest reading first. Thanks! Form field (ranking): labels in requested order.
stdout: a, c, b
